Where do these numbers come from? They come from the supplement of paper PMC10567573.

B1: INTS3 (parent)
chain: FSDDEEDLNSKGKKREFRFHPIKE

Variants of: B1
Assay: protein stability index of a GFP-peptide fusion (GPS, HEK-293T) (PSI 1-6); higher = more stable;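 also: lentivirally expressed fusions sorted by FACS into six bins by GFP to DsRed ratio, PSI derived from sequencing read proportions per bin multiplied by bin number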
Details: c terminus: a fixed tail appended
I'd be grateful if you could share measured protein stability index for these entries.
API doc: respond with a numeric literal and nothing else, no unit.

Quick one: protein stability index of `N9D` ?
3.79

Quick one: protein stability index of `H20C` ?
4.31

Quick one: protein stability index of `R15T` ?
3.38

Quick one: protein stability index of `R18T` ?
4.64

Quick one: protein stability index of `K11A` ?
3.62

Quick one: protein stability index of `D7C` ?
1.99

Quick one: protein stability index of `D4F` ?
2.19

Quick one: protein stability index of `D4V` ?
2.23

Quick one: protein stability index of `I22M` ?
3.2

Quick one: protein stability index of `I22F` ?
2.12

Quick one: protein stability index of `F17R` ?
4.97

Quick one: protein stability index of `E6A` ?
2.6

Quick one: protein stability index of `E24P` ?
1.76

Quick one: protein stability index of `K23G` ?
3.19

Quick one: protein stability index of `K14A` ?
3.01

Quick one: protein stability index of `S10N` ?
3.37

Quick one: protein stability index of `F19S` ?
5.6

Quick one: protein stability index of `S2V` ?
2.2

Quick one: protein stability index of `K11M` ?
2.79

Quick one: protein stability index of `D3Y` ?
2.32

Quick one: protein stability index of `K11N` ?
3.44

Quick one: protein stability index of `G12Q` ?
3.2

Quick one: protein stability index of `G12D` ?
2.92

Quick one: protein stability index of `R15N` ?
3.49

Quick one: protein stability index of `H20L` ?
5.1

Quick one: protein stability index of `H20W` ?
4.31

Quick one: protein stability index of `R15I` ?
3.47

Quick one: protein stability index of `F19T` ?
5.06

Quick one: protein stability index of `E16Y` ?
2.61

Quick one: protein stability index of `K11R` ?
3.2

Quick one: protein stability index of `K11S` ?
3.22

Quick one: protein stability index of `F1E` ?
3.36

Quick one: protein stability index of `D4A` ?
2.72

Quick one: protein stability index of `E6V` ?
2.27

Quick one: protein stability index of `L8F` ?
2.75

Quick one: protein stability index of `E24D` ?
3.07

Quick one: protein stability index of `E5I` ?
2.81
